# Tested on: Clostridium sporogenes
# protocol details: Antibacterial activity against Clostridium sporogenes ATCC 19404 after 24 hrs by microbroth double dilution method
# Type: functional
# conditions: ATCC 19404, 24 h
Class key for MIC values: lowest: < 400 µM; middle: ≥ 400 µM and < 2000 µM; highest: ≥ 2000 µM

Query string: Hey, which category is `CC(C)(C)C1=CC(=O)C=C(NCCC(=O)O)C1=O` in, do you know?
Result string: middle

Query string: GET /class?item= `CC1=CCC[C@H]2[C@](C)(CC3=CC(=O)C=C(N[C@@H](C(=O)O)C(C)C)C3=O)[C@@H](C)CC[C@]12C`
Result string: lowest

Query string: Hi, small favor: classify `C[C@H](NC1=CC(=O)C=C(C(C)(C)C)C1=O)C(=O)O` by its MIC when you get a moment.
Result string: highest

Query string: Which bin should I file `CC1=CCC[C@H]2[C@](C)(CC3=CC(=O)C(N4CCC[C@H]4C(=O)O)=CC3=O)[C@@H](C)CC[C@]12C` under?
Result string: lowest

Query string: Class (by measured MIC) for `CC(C)(C)C1=CC(=O)C=C(N[C@@H](Cc2ccccc2)C(=O)O)C1=O`
Result string: middle

Query string: Exercise: read the entry `CC1=CCC[C@H]2[C@](C)(CC3=CC(=O)C=C(N[C@@H](CC(C)C)C(=O)O)C3=O)[C@@H](C)CC[C@]12C` and state which class it falls under.
Result string: lowest

Query string: Sort `CC(C)(C)C1=CC(=O)C=CC1=O` into one of the categories.
Result string: middle

Query string: Bin? `CC(C)(C)C1=CC(=O)C=C(NCC(=O)O)C1=O`
Result string: highest
